Cited source for all entries: patent US20260151494A1

# assayed_system: T1, human CD71 extracellular domain (human, UniProt P02786 89-760, biotinylated)
# T1 construct: also called hCD71; CD71-ECD
# T1 sequence (P02786 89-760): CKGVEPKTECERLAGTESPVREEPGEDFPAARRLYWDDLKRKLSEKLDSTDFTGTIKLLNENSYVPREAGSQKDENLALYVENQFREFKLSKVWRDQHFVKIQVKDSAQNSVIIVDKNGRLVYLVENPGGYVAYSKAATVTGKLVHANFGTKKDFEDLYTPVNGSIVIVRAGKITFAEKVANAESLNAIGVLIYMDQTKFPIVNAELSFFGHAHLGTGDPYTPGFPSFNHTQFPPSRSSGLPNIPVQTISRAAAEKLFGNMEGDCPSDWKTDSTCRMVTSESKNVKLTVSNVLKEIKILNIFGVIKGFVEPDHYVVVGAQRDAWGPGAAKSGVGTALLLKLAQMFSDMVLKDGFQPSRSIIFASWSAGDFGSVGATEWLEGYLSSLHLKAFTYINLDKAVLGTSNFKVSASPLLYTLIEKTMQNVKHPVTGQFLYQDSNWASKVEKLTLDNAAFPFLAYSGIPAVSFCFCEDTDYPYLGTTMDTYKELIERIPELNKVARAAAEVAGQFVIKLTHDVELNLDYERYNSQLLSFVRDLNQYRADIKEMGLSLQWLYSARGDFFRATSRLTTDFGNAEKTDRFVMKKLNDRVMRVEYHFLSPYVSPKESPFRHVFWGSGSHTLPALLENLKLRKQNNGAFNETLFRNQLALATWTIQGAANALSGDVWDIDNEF
# method_notes: primary ELISA; also: test concentration or dose not given here
quantity_name: RLU (RLU)

{"columns": ["binder", "result_value"],
 "data": [
  ["CD71-binding FN3 domain of SEQ ID NO: 470 (designed binder) MLPAPKNLVVSRVTEDSARLSWTAPDAAFDSFFIGYLEPQPPGEAITLLVPGSERSYDLTGLKPGTEYNVTIQGVKGGFPSMPLSAIFTT", "2.47e+06"],
  ["CD71-binding FN3 domain of SEQ ID NO: 475 (designed binder) MLPAPKNLVVSRVTEDSARLSWTAPDAAFDSFFIGYLEPQPPGEAITLYVPGSERSYDLTGLKPGTEYNVTIQGVKGGFPSIPLSAEFTT", "3.46e+06"],
  ["CD71-binding FN3 domain of SEQ ID NO: 543 (designed binder) MLPAPKNLVVSRVTEDSARLSWTAPDAAFDSFFIGYLEPQPPGEAISLYVPGSERSYDLTGLKPGTEYNVTIQGVKGGFPSIPLVAVFTT", "5.29e+06"],
  ["CD71-binding FN3 domain of SEQ ID NO: 501 (designed binder) MLPAPKNLVVSRVTEDSARLSWTAPDAAFDSFFIGYLEPQPPGEAISLLVPGSERSYDLTGLKPGTEYNVTIQGVKGGFPSVPLSAIFTT", "3.21e+06"]
]}

I. CD71-binding FN3 domain of SEQ ID NO: 483 (designed binder) MLPAPKNLVVSRVTEDSARLSWTAPDAAFDSFFIGYLEPQPPGEAITLVVPGSERSYDLTGLKPGTEYNVTIQGVKGGFPSDPLVASFTT
II. CD71-binding FN3 domain of SEQ ID NO: 456 (designed binder) MLPAPKNLVVSRVTEDSARLSWTAPDAAFDSFFIGYLEPQPPGEAIALYVPGSERSYDLTGLKPGTEYNVTIQGVKGGFPSHPLQAHFTT
III. CD71-binding FN3 domain of SEQ ID NO: 506 (designed binder) MLPAPKNLVVSRVTEDSARLSWTAPDAAFDSFEIGYWENAYKGEAIVLTVPGSERSYDLTGLKPGTEYVVFIGGVKGGVWSVPLSAISTT
IV. CD71-binding FN3 domain of SEQ ID NO: 466 (designed binder) MLPAPKNLVVSRVTEDSARLSWTAPDAAFDSFYIAYAEPRPDGEAIWLLVPGSERSYDLTGLKPGTEYSVLIHGVKGGLLSSPLSADFTT
Give the ascending ranking of the items by reported RLU. A complete answer lists every label in the requested sequence. IV, III, I, II
